Item-by-item account of residual activity
- measured.on: Polyunsaturated fatty acid 5-lipoxygenase (Homo sapiens)
- protocol: Inhibition of partially purified human 5-LO expressed in Escherichia coli assessed as remaining 5-LO activity at 10 uM; values are per cent of control

Worked set:
Cc1cc(OCCN2CCOCC2)c(C)c2c1CCC(C(C)C(=O)Nc1nccs1)C2 (centres undefined) | 62%
CSc1cccc(NC(=O)Nc2nc3c(s2)CC2(C)CCC4C(C)C(=O)OC4C2C3C)c1 (centres undefined) | 67%
Cc1nnsc1C(=O)Nc1nc2c(s1)CC1(C)CCC3C(C)C(=O)OC3C1C2C (centres undefined) | 88%
COc1cc(C)c2c(c1C)CC(C(C)C(=O)Nc1nccs1)CC2 (centres undefined) | 56%

residual activity for COc1cc(C)c2c(c1C)CC(C(C)C(=O)NCc1cccs1)CC2 (centres undefined) is 64%

residual activity for COc1cc(C(=O)Nc2nc3c(s2)C[C@]2(C)CC[C@@H]4[C@H](OC(=O)[C@H]4C)[C@H]2[C@@H]3C)cc(OC)c1OC is 60%

residual activity for COc1cc(C)c2c(c1C)CC(C(C)C(=O)NCc1ccco1)CC2 (centres undefined) is 41%

residual activity for COc1cc(C)c2c(c1C)CC(C(C)C(=O)Nc1ccccn1)CC2 (centres undefined) is 42%

residual activity for CCCOc1cc(C)c2c(c1C)CC(C(C)C(=O)Nc1nccs1)CC2 (centres undefined) is 36%

residual activity for CC1C(=O)OC2C1CCC1(C)Cc3sc(NC(=O)C4CCCC4)nc3C(C)C21 (centres undefined) is 52%

residual activity for CC1C(=O)OC2C1CCC1(C)Cc3sc(NC(=O)NCc4ccccc4)nc3C(C)C21 (centres undefined) is 54%

residual activity for CC1C(=O)OC2C1CCC1(C)Cc3sc(NC(=O)c4ccc5c(c4)OCO5)nc3C(C)C21 (centres undefined) is 96%

residual activity for COc1cc(C)c2c(c1C)CC(C(C)C(=O)NC(C)(C)C)CC2 (centres undefined) is 42%

residual activity for CC1C(=O)OC2C1CCC1(C)Cc3sc(NC(=O)Nc4ccc(F)cc4F)nc3C(C)C21 (centres undefined) is 52%

residual activity for COc1ccccc1CC(=O)Nc1nc2c(s1)CC1(C)CCC3C(C)C(=O)OC3C1C2C (centres undefined) is 86%

residual activity for COCCOc1cc(C)c2c(c1C)CC(C(C)C(=O)NC1CCCC1)CC2 (centres undefined) is 56%

residual activity for COc1ccc(C(=O)Nc2nc3c(s2)CC2(C)CCC4C(C)C(=O)OC4C2C3C)cc1 (centres undefined) is 78%

residual activity for Cc1cc(OCCN(C)C)c(C)c2c1CCC(C(C)C(=O)Nc1ccccn1)C2 (centres undefined) is 73%

residual activity for Cc1cc(OCCN(C)C)c(C)c2c1CCC(C(C)C(=O)Nc1nccs1)C2 (centres undefined) is 65%

---

Item-by-item account of pIC50
- measured.on: Polyunsaturated fatty acid 5-lipoxygenase (Homo sapiens)
- protocol: Inhibition of partially purified human 5-LO expressed in Escherichia coli
Units for pIC50: none; it is -log10 of a concentration expressed in mol/L.

CCCOc1cc(C)c2c(c1C)CC(C(C)C(=O)Nc1ccccn1)CC2 (centres undefined) | 5.22

pIC50 for COc1cc(C)c2c(c1C)CC(C(C)C(=O)Nc1ccccn1)CC2 (centres undefined) is 6.10

---

- measured.on: Polyunsaturated fatty acid 5-lipoxygenase (Homo sapiens, UniProt P09917)
- protocol: Inhibition of 5-LO activity in ionophore A23187 and arachidonic-stimulated human intact PMNL
- Type: functional
Item-by-item account of log10 of IC50
Recorded IC50 (log10, µM)

Worked set:
COc1cc(C)c2c(c1C)CC(C(C)C(=O)Nc1ccccn1)CC2 (centres undefined) | 0.70
CCCOc1cc(C)c2c(c1C)CC(C(C)C(=O)Nc1ccccn1)CC2 (centres undefined) | -0.05
CC1C(=O)OC2C1CCC1(C)Cc3sc(NC(=O)c4ccc5c(c4)OCO5)nc3C(C)C21 (centres undefined) | 0.30
CC1C(=O)OC2C1CCC1(C)Cc3sc(NC(=O)C4CCCC4)nc3C(C)C21 (centres undefined) | 0.90
COc1cc(C)c2c(c1C)CC(C(C)C(=O)NCc1cccs1)CC2 (centres undefined) | 0.90
COc1cc(C(=O)Nc2nc3c(s2)C[C@]2(C)CC[C@@H]4[C@H](OC(=O)[C@H]4C)[C@H]2[C@@H]3C)cc(OC)c1OC | -0.05
CCCOc1cc(C)c2c(c1C)CC(C(C)C(=O)Nc1ncc(C)s1)CC2 (centres undefined) | 0.00
CC1C(=O)OC2C1CCC1(C)Cc3sc(NC(=O)NCc4ccccc4)nc3C(C)C21 (centres undefined) | 0.48
COc1ccc(C(=O)Nc2nc3c(s2)CC2(C)CCC4C(C)C(=O)OC4C2C3C)cc1 (centres undefined) | 0.78
COc1ccccc1CC(=O)Nc1nc2c(s1)CC1(C)CCC3C(C)C(=O)OC3C1C2C (centres undefined) | 0.60

log10 of IC50 for Cc1nnsc1C(=O)Nc1nc2c(s1)CC1(C)CCC3C(C)C(=O)OC3C1C2C (centres undefined) is 1.00

log10 of IC50 for CCCOc1cc(C)c2c(c1C)CC(C(C)C(=O)Nc1nccs1)CC2 (centres undefined) is -0.10

log10 of IC50 for CCCOc1cc(C)c2c(c1C)CC(C(C)C(=O)NCc1cccs1)CC2 (centres undefined) is 0.90

log10 of IC50 for CSc1cccc(NC(=O)Nc2nc3c(s2)CC2(C)CCC4C(C)C(=O)OC4C2C3C)c1 (centres undefined) is 0.60

log10 of IC50 for CC1C(=O)OC2C1CCC1(C)Cc3sc(NC(=O)Nc4ccc(F)cc4F)nc3C(C)C21 (centres undefined) is 0.85

---

- measured.on: Polyunsaturated fatty acid 5-lipoxygenase (Homo sapiens, UniProt P09917)
- Sequence (P09917 whole entry): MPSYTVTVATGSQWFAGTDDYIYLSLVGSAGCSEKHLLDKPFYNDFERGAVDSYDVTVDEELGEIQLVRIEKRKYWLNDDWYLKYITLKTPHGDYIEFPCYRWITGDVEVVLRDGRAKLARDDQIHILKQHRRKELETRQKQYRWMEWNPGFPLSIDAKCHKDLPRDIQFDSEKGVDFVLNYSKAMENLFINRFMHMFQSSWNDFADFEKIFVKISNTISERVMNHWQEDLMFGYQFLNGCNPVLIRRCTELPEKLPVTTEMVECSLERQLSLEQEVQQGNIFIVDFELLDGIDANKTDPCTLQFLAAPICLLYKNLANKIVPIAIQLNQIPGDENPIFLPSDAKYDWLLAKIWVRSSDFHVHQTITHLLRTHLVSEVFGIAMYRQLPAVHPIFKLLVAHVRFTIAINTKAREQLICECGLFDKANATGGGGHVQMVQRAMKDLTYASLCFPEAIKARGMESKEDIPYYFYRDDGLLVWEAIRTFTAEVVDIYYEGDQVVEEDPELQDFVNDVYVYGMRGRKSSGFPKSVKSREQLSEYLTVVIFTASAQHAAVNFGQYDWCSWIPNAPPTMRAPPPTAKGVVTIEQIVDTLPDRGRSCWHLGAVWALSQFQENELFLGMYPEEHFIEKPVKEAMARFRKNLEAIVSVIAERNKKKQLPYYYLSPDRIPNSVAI
- protocol: Inhibition of partially purified human 5-LO expressed in Escherichia coli
Item-by-item account of IC50
Numbers only; they are read as µM.

Worked set:
CSc1cccc(NC(=O)Nc2nc3c(s2)CC2(C)CCC4C(C)C(=O)OC4C2C3C)c1 (stereo not given) | 1
CC1C(=O)OC2C1CCC1(C)Cc3sc(NC(=O)C4CCCC4)nc3C(C)C21 (stereo not given) | 10

// next item, IC50 requested
IC50 for CCCOc1cc(C)c2c(c1C)CC(C(C)C(=O)Nc1nccs1)CC2 (stereo not given) is 1

---

- measured.on: Polyunsaturated fatty acid 5-lipoxygenase (Homo sapiens) (UniProt P09917)
- protocol: Inhibition of partially purified human 5-LO expressed in Escherichia coli assessed as remaining 5-LO activity at 1 uM; values are per cent of control
Group membership follows residual activity per the scheme low range = under 60%, mid range = from 60% up to 70%, high range = 70% and over

CSc1cccc(NC(=O)Nc2nc3c(s2)CC2(C)CCC4C(C)C(=O)OC4C2C3C)c1 (centres undefined) | low range
COc1cc(C)c2c(c1C)CC(C(C)C(=O)NCc1cccs1)CC2 (centres undefined) | mid range

Hi there! Could you help me figure out the category for CC1C(=O)OC2C1CCC1(C)Cc3sc(NC(=O)C4CCCC4)nc3C(C)C21 (centres undefined) please?
mid range

Hi there! Could you help me figure out the category for COc1ccc(C(=O)Nc2nc3c(s2)CC2(C)CCC4C(C)C(=O)OC4C2C3C)cc1 (centres undefined) please?
low range

Hi there! Could you help me figure out the category for CC1C(=O)OC2C1CCC1(C)Cc3sc(NC(=O)NCc4ccccc4)nc3C(C)C21 (centres undefined) please?
high range

Hi there! Could you help me figure out the category for COc1cc(C(=O)Nc2nc3c(s2)C[C@]2(C)CC[C@@H]4[C@H](OC(=O)[C@H]4C)[C@H]2[C@@H]3C)cc(OC)c1OC please?
mid range

// data source = ChEMBL document CHEMBL1143062
